Just for reference, the supplement of paper PMC10567573 is where these values come from.

B1: RIPK4 (parent)
chain: AAWQGHLPIVKLLAKQPGVSVNAQ

- Variants of: B1
- procedure-summary: protein stability index of a GFP-peptide fusion (GPS, HEK-293T) (PSI 1-6); higher = more stable;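 note: lentivirally expressed fusions sorted by FACS into six bins by GFP to DsRed ratio, PSI derived from sequencing read proportions per bin multiplied by bin number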
- reported-conditions: c terminus: a fixed tail appended
Note to self: values exactly at 2 are Satisfied. So protein stability index at or above 2 is Satisfied, below is Not satisfied.

• G5V = Satisfied
• Q16W = Not satisfied
• P17W = Satisfied
• P17M = Satisfied
• V19R = Satisfied
• L13S = Satisfied
• G18F = Not satisfied
• K11H = Satisfied
• I9G = Satisfied
• Q4L = Not satisfied
• A14R = Satisfied
• G18N = Satisfied
• A23C = Satisfied
• V21S = Satisfied
• G5E = Satisfied
• K15I = Satisfied
• V21Q = Satisfied
• N22T = Satisfied
• P17K = Satisfied
• L7M = Satisfied
• V19S = Satisfied
• Q4T = Satisfied
• L12D = Satisfied
• Q4E = Satisfied
• N22D = Satisfied
• L7W = Not satisfied
• G5Y = Satisfied
• A14C = Not satisfied
• N22S = Satisfied
• K11N = Satisfied
• L13I = Satisfied
• P8F = Satisfied
• H6N = Satisfied
